log10(EC50) by entry:
# System: MDA-MB-231
# measurement.protocol: Cytotoxicity against human MDA-MB-231 cells assessed as cell viability after 48 hrs by MTT assay
# Type: functional, cell-based
# condition.description: MDA-MB-231, 48 h
Response schema: value (number) is log10 of EC50 in units of µM.

> print(dat)
                               query.smiles  recorded.measurement
1  COc1cc2c(NC3CCN(C)CC3)nc(N3CCCN(C)CC3)nc2cc1OCCCN(C)C                  1.53

Entry COc1cc2c(NC3CCN(C(C)C)CC3)nc(C3CCCCC3)nc2cc1OCCCN1CCCCC1 has what log10(EC50)?
0.88

Find the recorded log10(EC50) belonging to COc1cc2c(NC3CCN(C)CC3)nc(N3CCCN(C)CC3)nc2cc1OCCCN1CCCCC1 and report it.
1.08

Look up log10(EC50) for this compound: COc1cc2c(NC3CCN(C(C)C)CC3)nc(N3CCCN(C)CC3)nc2cc1OCCCN1CCCC1
0.15

Need log10(EC50) of COc1cc2c(NC3CCN(C4CCCCC4)CC3)nc(N3CCCN(C)CC3)nc2cc1OCCCN1CCCCC1 , thanks.
0.46

I have this compound here, COc1cc2c(NC3CCN(C(C)C)CC3)nc(N3CCCN(C(C)C)CC3)nc2cc1OCCCN1CCCCC1 , and I need its recorded log10(EC50).
0.61

# lookup: log10(EC50) of COc1cc2c(NC3CCN(C(C)C)CC3)nc(N3CCCN(C4CCCCC4)CC3)nc2cc1OCCCN1CCCC1
-0.14

Looking for the measured log10(EC50) of COc1cc2c(NC3CCN(C(C)C)CC3)nc(N3CCCCCC3)nc2cc1OCCCN1CCCC1 , can you help?
0.76

Which log10(EC50) value is on record for COc1cc2c(NC3CCN(C(C)C)CC3)nc(C3CCCCC3)nc2cc1OCCOCCN(C)C ?
1.11

Endpoint output: log10(EC50) of COc1cc2c(NC3CCN(CC4CCCCC4)CC3)nc(N3CCCN(C(C)C)CC3)nc2cc1OCCCN1CCCCC1 . Value?
0.45

Dear colleague, I am looking for the recorded log10(EC50) of the following compound: COc1cc2c(NC3CCN(C)CC3)nc(N3CCCN(C)CC3)nc2cc1OCCCN1CCCC1
1.18

Sourced from ChEMBL document CHEMBL1828613
